Value source: patent US20250250357A1

# Experimental Target: T1, human MSLN-R3 protein (human, UniProt Q13421 487-598)
# T1 construct: also called hMSLN-R3
# T1 sequence (Q13421 495-606, form in doubt): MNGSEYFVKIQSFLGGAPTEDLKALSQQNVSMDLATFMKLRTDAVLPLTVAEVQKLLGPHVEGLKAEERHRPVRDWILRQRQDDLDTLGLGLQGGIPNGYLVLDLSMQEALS
# Assay Notes: ELISA on coated antigen, antibody 1 nM
Recorded Endpoint: OD450 (OD450)
Numbers only, in OD450.

A selection of reference data follows.
Binder | Units Symbol | Numeric Readout
F7.33.24-H6 (scFv, not shown: small tags and cut ends, also called S009-F7.33.24 humanized antibody VH1a + VL3) scFv: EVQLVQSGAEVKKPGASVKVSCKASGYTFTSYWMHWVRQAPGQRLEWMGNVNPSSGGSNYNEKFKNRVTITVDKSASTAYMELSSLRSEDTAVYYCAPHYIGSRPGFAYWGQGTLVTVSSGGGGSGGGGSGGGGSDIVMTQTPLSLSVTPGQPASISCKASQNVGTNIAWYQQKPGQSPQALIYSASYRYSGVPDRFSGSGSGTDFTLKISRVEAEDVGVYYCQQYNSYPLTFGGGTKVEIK | OD450 | 0.53
F7.33.24-H9 (scFv, not shown: small tags and cut ends, also called S009-F7.33.24 humanized antibody VH2 + VL3) scFv: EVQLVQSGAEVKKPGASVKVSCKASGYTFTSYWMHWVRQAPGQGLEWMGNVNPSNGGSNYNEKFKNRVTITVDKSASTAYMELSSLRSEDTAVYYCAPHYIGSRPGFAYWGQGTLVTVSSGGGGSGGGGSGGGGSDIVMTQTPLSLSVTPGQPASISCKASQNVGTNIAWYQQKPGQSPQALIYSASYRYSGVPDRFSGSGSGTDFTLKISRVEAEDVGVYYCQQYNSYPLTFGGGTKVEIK | OD450 | 0.82

Continue with the next binder.
Q: Please give the measured OD450 for this binder: F7.33.24-H5 (scFv, not shown: small tags and cut ends, also called S009-F7.33.24 humanized antibody VH1a + VL2) scFv: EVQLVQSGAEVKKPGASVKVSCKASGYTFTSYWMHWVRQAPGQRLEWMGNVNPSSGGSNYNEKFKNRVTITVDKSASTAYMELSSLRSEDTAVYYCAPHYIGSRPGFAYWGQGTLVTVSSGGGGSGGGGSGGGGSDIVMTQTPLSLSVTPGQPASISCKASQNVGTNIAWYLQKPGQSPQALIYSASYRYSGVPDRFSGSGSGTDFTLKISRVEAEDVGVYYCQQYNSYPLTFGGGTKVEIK
A: 0.39
